Could you please report measured apparent KD of K4 kissing-loop reporter for the items listed next?
Test system: K4 kissing-loop RNA reporter
Assay: apparent KD of K4 kissing-loop reporter; higher = weaker reporter binding
Details: Eterna round: R107; input ligand: arginine 13.2 mM
Dear colleague, please send the value followed by its unit.

Determine from records and report apparent KD of K4 kissing-loop reporter for AAACUUGCAGUGAUGUUGCAAGUAGGUGAUACCAGCAUCGAAAGAUGCCCUUGGCAGCACCAACACUGUAAGUAAGUAUCACCAA [(H1)-(H2)-(T1)-(T2)-(H)'-(T)'_Design2]
120 nM

Determine from records and report apparent KD of K4 kissing-loop reporter for AGAGUACGAAAGUACUCCUCUACACACUGCCGAGGACCGGUACGGCCGCCACUCGAGUUGAGUGAUGUUCGACAGUGUGUAGAGA [Omei KL Tryp A SS C v2]
56.2 nM

Give apparent KD of K4 kissing-loop reporter for each of the items listed below.
1. GAUGGGUAUCAAGGAUAUGCCACUAUUGACUCCUAGAUGGUCAACCAUAUAAUGCGAGUGAUGUUCGCAGAAGGUGAUUCUUAGC [theeternabot_exclusion_KL_FMN_B_24]
2. GUAUCGCUAGGAGGAUAUGUCGUUUUUCAUAGCAAUGGCUGUGCGGAGUGAUGUUCCGAUUUACCGGCAGAAGGCCUAGUGAUAC [FMN B 28]
3. CGCAGUGAUGUUGCUAUUAUUCUUGAUUAACGAGGACCGGUACGGCCGCCACUCGGUUUCUAUCUGAUCCAGCGUUUUGUUGAGU [#23 K4 Tryptophan A Exclusion]
4. GGAUCCACCAGUGAUGUUGGAGAAAACUUCAAGGAUAUGACGAAAGUCAGAAGGUGAUAGACUGGACAAAGUCCGGUCGGAUCCA [FmnA 19 U29+A57]

1. 92.3 nM
2. 104 nM
3. 562 nM
4. 729 nM

Give apparent KD of K4 kissing-loop reporter for each of the items listed below.
1. AGACUACCACACUGUCAAUAGACAGUGAGCUAGGAUAUGCUGAUAAGCAGAAGGAGUGAUGUUCCUAGGUAGUCAAUAAAAUAAU [FmnAX 13 G29]
2. UGUGAUGUGUAGUGUGAUGUUUUGAAGGAUACCAGAGUGUUGUUAUUCCCUUGGCAGCUUGAGUGAUGUUUGAUGUUGUUGUUGU [aawemullin]
3. UCCUUUGUUGCCAGUGAUGUUGGACAGGAAGGAGCGGGCAUAAGCCCAGGUAGGUCGCCUGUCAACUUUCUUAUAGCCCUAAGGU [KL-XArg-A16]

462 nM
179 nM
329 nM

Give apparent KD of K4 kissing-loop reporter for each of the items listed below.
1. CCAGAAUGAUGAAGAUGAUAAAUUACUGAAGGAGCGCAUAUAGUUGCAGGUAGGUCGCGGUGAAUAAGUAUAGUGAUGUUAUACC [SSArgA.Ac]
2. AAAUAUUCGAGUGAUGUUCGAUAAAUUUCAGAGGAUAUGCUUAAAAGCAGAAGGCUGUAUUUCUAUUUGUUAUUAAAUUUUAUAA [JR_ExcFMNA_Sub002]
3. AAAUUUAAUAUAUUUAAUUAAUUAAGUGAUACCAGACAUUAAUAAGUCCCUUGGCAGCACAAUGCAGUGAUGUUGCUUAUAAUAA [JR_SSTheophyA_Sub009]
4. CGCAGUGAUGUUGCUAUUAUUCUUGGUUAACGAGGACCGGUACGGCCGCCACUCGAUUUCUGUCUAGUCCAGUGUUUUUUUGAGU [whbob_EX_Tryp_A_t7]
5. CCAUCGCUAUUCGAUACCAGUCAUUUUUUAUUUUAUUUUUUUUUUGGAGUGAUGUUCCAAGACCCUUGGCAGCGAAUAGUGAUGG [whbob_SS_Theo_B_th78]
6. AAGUGAUGUUGUAGUGAUGUUGUGAUGUUGCAGGAUAUAUAGUGAUGUAGAAGGGUAAGUACUGUUUUUUUUUUUGAGUGAUGUU [ookooyzrmullin]
7. AGCUCAGAGUGACUCGAUAAGAGUCACAAACGAGGACCGGUACGGCCGCCACUCGAAAUAAAGAGAGUGAUGUUCUCGCUGAGCA [FiskerMod 9 - Jieux - Same State Tryptophan A]
8. UGUAUUUCGGCGGCCGCCACUGACCAUAGCCUUCGAUGGCCAGUGAUGUUGGCCUCUGGCUCUAACAGGACCGGGCCGAAUUGCG [Usvediin]

1: 167 nM; 2: 107 nM; 3: 120 nM; 4: 464 nM; 5: 130 nM; 6: 41.7 nM; 7: 211 nM; 8: 165 nM

Give apparent KD of K4 kissing-loop reporter for each of the items listed below.
1. UGAUACCAGACGGCCGCCACUCCCGUAAGUCAAAGACUUACGAAGAGGGUUUUUCAGUGAUGUUGGAGGACCGGGUCUGGUAUCU [FiskerMod 17 - Jieux - Exclusion - Tryptophan B]
2. UCGCGUAAUGGAAGGAGCGGUGCCAGUGAUGUUGGAUACUGCGUGUAUUAGGUCGGAGCGCACCAGGUAGGUCGCCAUUUGGUGG [Tigedies]
3. AAUAUCUAGUAUAUAUUUAAUAAAACAGAUACCAGUGAUAAUAGACACCCUUGGCAGCUGGACGAGUGAUGUUCGUAUAUAUUAA [JR_SSTheophyA_Sub007]
4. UGGUUCAAUACGGCCGCCACUGGUGAGUGAUGUUUACCGUCUAUAUCAUGUGUCGAGAGCGCUAUCAGGACCGGGUAGGGACCGU [theeternabot_exclusion_KL_Trp_B_42]

1: 420 nM; 2: 276 nM; 3: 153 nM; 4: 396 nM

Give apparent KD of K4 kissing-loop reporter for each of the items listed below.
1. UGUACUAUUGUGAGUGAUGUUCACUUCGAUACCAGCAGAGCGAUCUGCCCUUGGCAGCGAGUUAACUGCCGAAAGGCAAGGAUUA [Theo B SS t9]
2. GUAUGUGGAAACACGUACUUGUAUCCUAGGCAGGAUAUGCGGAAACGCAGAAGGGCCACCGGCGAGUUUAUCCAGUGAUGUUGGA [Ex FMN A 9]

1: 528 nM; 2: 257 nM

* * *

Tested on: K4 kissing-loop RNA reporter
Assay: apparent KD of K4 kissing-loop reporter; higher = weaker reporter binding
Conditions: Eterna round: R107; input ligand: FMN 200 uM
Note to self: values exactly at 200 nM are Fulfilled. So apparent KD of K4 kissing-loop reporter at or above 200 nM is Fulfilled, below is Not fulfilled.

Is apparent KD of K4 kissing-loop reporter for CGCGCGCGUUUGAGAGGGUGCGCGCGAAGUGAGGAUAUUUAGGGAGAAAGAAGGCACUAUAAAAUAUAGUGAUGUUAUAUAAGGG [SSFMNA.G] at or above 200 nM?
Fulfilled

Further cases:
Is apparent KD of K4 kissing-loop reporter for AUGGUAUUGCGAGGAUAUCCUUCAAACGUGACACUAACGGCAGUGAUGUUGCCGGCGUCGAUCAGAGGAGAAGGCGCGGUGUUAU [Exclusion FMN B GF 23] at or above 200 nM?
Not fulfilled

Is apparent KD of K4 kissing-loop reporter for AUCGUUGUCUGAGGAUAUCGGUUAUCUGUAGUGAUGUUACAGUAUAUUGAUAUUAAAGUUUCUAUUCGAGAAGGCAGACUACGUA [JR_Nu_ExcFMNB_Sub022] at or above 200 nM?
Not fulfilled

* * *

Tested on: K4 kissing-loop RNA reporter;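 further: bound reporter read as fluorescence of individual clusters on recovered sequencing chips by microscopy, with normalized cluster intensities fitted with a binding model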
Test: apparent KD of K4 kissing-loop reporter; higher = weaker reporter binding
Conditions: Eterna round: R107; input ligand: none
Note to self: values exactly at 0.3 µM are rule met. So apparent KD of K4 kissing-loop reporter at or above 0.3 µM is rule met, below is rule not met.

Is apparent KD of K4 kissing-loop reporter for AAUUUACAUUAAUUAUUUAAAGGUUCAGAAGGAGCGUGAAUUAACACAGGUAGGUCGCUGAGCGAGUGAUGUUCGCUAUAUACUA [JR_ExcArginiA_Sub003] at or above 0.3 µM?
rule not met

Is apparent KD of K4 kissing-loop reporter for AGAACUGUCUUGGAUACCAGUGAUGUUGGUAUCGAUGUGUGAGUGCAAAGCGUCCCAGAGUGCCCUUGGCAGCUAAGACUGUUCA [#16 K4 Theophylline B Exclusion] at or above 0.3 µM?
rule not met

Is apparent KD of K4 kissing-loop reporter for UGGAGUUGACGAAAAGUCAACUCCUGAGAUCGAGGACCGGUACGGCCGCCACUCGAGCUAACUGCGAGUGAUGUUCGAAAAUAAA [#OpenEnded 1 - Direct theophylline transfer] at or above 0.3 µM?
rule not met

Is apparent KD of K4 kissing-loop reporter for UGUACUAUUGUGAGUGAUGUUCACUUCGAUACCAGCAGAGCGAUCUGCCCUUGGCAGCGAGUUAACUGCCGAAAGGCAAGGAUUA [Theo B SS t9] at or above 0.3 µM?
rule met

Please find the next sequence below.
Is apparent KD of K4 kissing-loop reporter for GCAUCAUGCUACGAUACCAGAAGUUCCCUUUAGUGUAGUGAUGUUGCAGAUAUUGCUUACUUCCCUUGGCAGCGUUUGACGGGUA [theeternabot_sameState_KL_Theo_B_35] at or above 0.3 µM?
rule not met

Origin of measurements: the supplement of paper PMC9170038
